- ASSAY_PROTOCOL: yeast display, Sf9 membrane polyspecificity reagent, FACS + sequencing; frameworks hold sequencing errors
MEASURE_NAME: polyreactivity (PSR sort gate)

Solved entries:
QVQLVESGGGLVQAGGSLRISCAASGVIFGTYAMRSYRQAPGKERELVAAITSGGTTIYADSVKGRFTISRDNAKNTVYLQMNSLKPEDTAVYYCAARRLYVGYGYDYWGQGTQVTVSS    high polyreactivity
QDQLVESGGGLVQAGGSLRLSCAASGSISSKNAMGCYRQAPGKEREFVAVISGTGGSTYYSDSVKGRFTISRDNAKNTVYLQMNRLKPEDTAVYYCAAAGSSIVSYGYSWTYGYWGQGTQVTVSS    low polyreactivity
QVQLVESGGGLVQAGGSLRLSCAASGRTCGYYAMGWYRQAPGKEREFVAVITWSGDSTYYADSVKGRFTISRDNAKNTVYLQMNSLKPEDTAVYNGNADSGNAGTAYDDYDYSGQGTQVTVSS    low polyreactivity
QVQLVESGGGLVQAGGSLRLSCAASGFIIPGYAMGWYRQAPGKERELVAAISRSGTSTYYADSVKGRFTISRDNAKNTVYLQMNSLKPEDTAVYYCAAKPASLSVRGYDYWGQGTQVTVSS    high polyreactivity

Documented polyreactivity (PSR sort gate) of "QVQLVESGGGLVQAGGSLRLSCAASGFTFTGYAMGWYRQAPGKERELVAAITRGGGSTYYADSVKGRFTISRDNAKNTVYLQMNSLKPEDTAVYYCAAQRSRLIRISSPYYGHDYWGQGTQVTVSS" : low polyreactivity

----------
- ASSAY_PROTOCOL: yeast display, Sf9 membrane polyspecificity reagent, FACS + sequencing; frameworks hold sequencing errors
MEASURE_NAME: polyreactivity (PSR sort gate)

Solved entries:
QVQLVESGGGLVQAGGSLRLSCAASGRTFVRYAMGWYRQAPGKERELVARITSRGTSTYYADSVKGRFTISRDNAKNTVYLQMNSLKPEDTAVYYCNKVSTFREKSRYDYWGQGTQVTVSS    low polyreactivity
QVQLVESGGGLLQAGGSLRLSCAASGLTFVGYDMGWYRQAPGKERELVAAISTGGGSTYYADSVKGRFTISRDNAMNTVYLKMNSLKPEDTAVYYCNKLRLHGDRYDYWGQGTQVTVSS    high polyreactivity
QVQLVESGGGLVQAGGSLRLSCAASGYIFGSYTMGWYRQAPAKERELVAGISRRGGGTYYADSVKGRFTISRDNAKNTVYLQMNSLKPEDTAVYYCAAEVITIGLYRYGYWGQGTQVTVSS    high polyreactivity
QVQLVESGGGLVQAGGSLRLSCSASGRIFGYNAMGWSRQAPGKERELVAAISYSGTSTYYADSVKGRFTISRDKAKNTVYLQMNSLKPEDTAVYYCATLAYRWSVAYEYLGQGTQVTVSS    low polyreactivity
QVQLVESGGGLFQAGGSLRLSCAASGRIFYTNVMGWYRPAPGKERELVAAISTGGGRTYYADSVKGRFTISRDYAKNTVYLQMNSLKPEDTAVYYCAADWRTKGYDSLGQGTQVTVSS    high polyreactivity
QVLLVESGGGLVQAGGSLRLSCAASGIIFYRNAMGWYRQAPGKERELVAVITASGGHTYYADSVKGRFTISRDNAKNTVYLQMNSLKPEDTAVYYCNRELTSPRRWHVSRADDYWGQGTQVTVSS    low polyreactivity
QVQLVESGGGLVQAGGSLRISCAASGRIFDRYVLGWYRQAPGKERELVAAISSGGSTYYADSVKGRFTISRDNAKNTVYLQMNSLKPEDTAVYYCAADRRSKYDYWGQGTQVTVSS    low polyreactivity
QVELVESGGGLVQAGGSLRLSCSASGSIFYKYAMGWYRQAPGKERELVAAIRVSGGSTYYADSVKGRFTISRDNAKNTVYLQMNSLKPEDTAVYYCAAESKFPWGYRYDYWGQGTQVTVSS    low polyreactivity

Documented polyreactivity (PSR sort gate) of "QVQLVESGGGLVQAGGSVRLSCAASGRTFYYNAMGWYRQAPGKERELVAAISWSGGSTYYADSVKGRFTISRDNAKNTVYLQMNSLKPEDTAVYYCAARSRYYHFDYWGQGTQVTVSS" : high polyreactivity

Documented polyreactivity (PSR sort gate) of "QVQHVESGGGLVQAGGSLRLSCAASGRTFWTNALGWYRQAPGKEREFVGAISWRGASTFYADSVKGRFTISRDHAKNTVYLQMTSLKPEDTAVYDCAAQSRTRSFYGKFDSWGQGTQVTVSS" : low polyreactivity

Documented polyreactivity (PSR sort gate) of "QVQLVESGGGLVQAGGSLRLSCAASGSILLYYVMGWYRQAPGKERELVAGISSSGRTYYADSVKGRFTISRDNAKNTVYLQMNSLKPEDTAVYYSAKKYWRGDVRVGYWGQGTQVTVSS" : high polyreactivity

Documented polyreactivity (PSR sort gate) of "QVQLVESGGGLVQAGGSLRLSCAASGLTFGRNAMGWYRQSPGKERELVAAITFNGGSTYYADSVKGRFTISRDNAKNTVYFQMNSLKPEDTAVYYCAARLWRRSRFDYWGLGTQVTVSS" : high polyreactivity

----------
- ASSAY_PROTOCOL: yeast display, Sf9 membrane polyspecificity reagent, FACS + sequencing; frameworks hold sequencing errors
MEASURE_NAME: polyreactivity (PSR sort gate)

Solved entries:
QVQLVESGGGLVQAGGSLRLSCAASGFSIYRNSMGWYRPAPGKERELVAGISSGGSTNYADSVKGRFTISRDNAKNTVYLQMNSLKPEDTAVYYCATRVYALWFGRYDYWGQGTQVTVSS    high polyreactivity
QVQLVESGGGLDQAGGSLRLSCAASGITIIGYAMGWYRQAHGKERELVASITSGANTNYADSVKGRFTISRANAKNTVYFQMNSLKPEATAVYYCAAPEHGTYANILGEPLDYWGQGSQVTVSS    low polyreactivity
QVQLQESGGGLVQASGSLRLSCAASGNIFPDYVMGWYRLAPGKEREFVANITGGSTTNYADSVKGRFTIIRDNAKNTVYLQMNSLKAEDTAVYYCAVNFGTVVLYLYWGQGTQVTVSS    high polyreactivity
QVQLVESGGGLVQAGGSLRLSCAASGSIFRPYAMGWYRQAPGKERELVAAITSGGRTNYADSVKGRFTISRDNAKNTVYLQMNSLKPEDTAVYYCAKTGSYAKIRPNNDYWGQGTQVTVSS    low polyreactivity
QVHLVESGGGLVQAGGSLRLSSAASGSIFGANAMGWYRQAPGKERELVAAITSGSGTNYADSVKGRFTISRDNSKNTVYLQMNSLKPEDTAVYSCAARHPYPIYDYWGQGTQVTVSS    low polyreactivity

Documented polyreactivity (PSR sort gate) of "QVQLVESGGGLVQSGGSLRLSCAASGYIIPRYAMGWYIHAPGKERELVAGITTGVRTNYADSVKGRFTISRDNAKNSVYLQMNSLKPGDTAVYYCNARYFRYRYNRYDYWGQGTQVTVSS" : high polyreactivity

Documented polyreactivity (PSR sort gate) of "QVQLVESGGGLVQAGVSLRLSCAASGRTLPRYAMGWYRQAPGKEREFVAAITFGGDSTYYADSVKGRFTISRDNAKNTVYLQMNSLKPEDTAVYSCAAKSFRGQRFGYWGQGTQVTVSS" : high polyreactivity

Documented polyreactivity (PSR sort gate) of "QVQLVESGGGLVQAGGSLRLSCAASGRTFGWYAMGWYRQAPGKERELVAAINNSGDITYYADSVKGRFTISRDNAKNTVYLQMNRLKPEDTAVYYCAKDNGRAYFGPSPYDYWGQGTQVTVSS" : low polyreactivity

----------
- ASSAY_PROTOCOL: yeast display, Sf9 membrane polyspecificity reagent, FACS + sequencing; frameworks hold sequencing errors
MEASURE_NAME: polyreactivity (PSR sort gate)

Solved entries:
QVQLVESGGGLVLAGGSLRLSCAASGSTFRGNAMGWYRQAPGKERELVAAITRRGGSTYYADSVKGRFTISRDNAKNTVYLQMNSLKPEDTAVYYCAKVTTYVSAWQGNGYWGQGTQVTVSS    high polyreactivity
QVRLVESGGGLGQAGGSLRLSCAASGPIFDTNAMGWYRQAPGKERELVAAISYIGGGTYYADSVKGRFTISRDNAKNTVYLQMNSLKPEDTAVYYCAAEQIYVFFGDWMEYWGQGTQVTVSS    low polyreactivity
QVQLVESGGGLVQAGGSLRLSCAASGFISHKYAMGWYRHAHGKERELVAAISWSGTSTHYADSVKGRFTISRDNAKKTVYIQMKSLKPEDTAVYYCAARRYPVLKYDYWGEGTQVTVSS    high polyreactivity
QVQLVESGGGLVQAGGSLRLSCAPSGFTFRYYAMAWYRQAPGKEREFVAAISWSGGSTYYADSVKGRFTISRDNAKNTVYLQMNSLKPEDTAVYYCAAYYPLWGWGYDYWGQGTQVTVSS    high polyreactivity
QVQLVESGGGLVQAGGSLRLSCAASGFIFYPYAMGWYRQAPGKVRELVAVITSGGRTYYADSVKGRFTISRDNAKNTVYLQMNSLKAEDTAVYYCAARYGRIHWKANWPEYGYWGQGTQVTVSS    low polyreactivity

Documented polyreactivity (PSR sort gate) of "QVQLVESGGGLVQAGGSLRLSCAASGSTFPSYAMGWSRQAPGKERELVAAISRSGGSTYYADSVKGRFTISRDNAKNTVYLQMISLKPEDTAVYYCAARGHLRYESDYWGQGTQVTVSS" : high polyreactivity

Documented polyreactivity (PSR sort gate) of "QVHLVESGGGLVQAGGSLRLSCAASGRIFGDYAMGWYRQATGKERELVAAINSSGTSTNYADSVKGRFTFSRDNAKNTVYLQMNSLKPEDTAVYYCNAEGTYRPEYDSWGQGTQVTVSS" : low polyreactivity

Documented polyreactivity (PSR sort gate) of "QVQLVESGGGLVQAGGSLRLSCAASGRIFKPYVMGWYRQAPGKERELVAAITRGGSTNYADSVKGRFTISRDNAKNTVYLQMNSLKPEDTAVYDCAVYYYGTWGWDDYWGQGTQVTVSS" : high polyreactivity

Documented polyreactivity (PSR sort gate) of "QVQLVESGGGLVQAGGSLRLSCAASGSTFTYNTMGWYRQAPGKERELVAAISWGGGGTYYADSVKGRFTISRDNAKNSVYLQMNSLKRVDTAVYYCKADPWWDYGTFDYWGQGTQVTVSS" : low polyreactivity

Data credit: the nanobody polyreactivity screen of Harvey et al. (2022)
